Test system: MSC
EXPERIMENTAL DETAILS: Induction of osteogenic activity in human MSC assessed as cell differentiation after 14 days by alizarin red staining-based spectrometry relative to vehicle-treated control
Assay type: functional
MEASUREMENT LABEL: Activity

# example entries with known answers
COMPOUND: C=CCOc1ccc2c(=O)c(-c3ccc(O)cc3)coc2c1
Activity: Dose-dependent effect
--
COMPOUND: C#CCOc1ccc2c(=O)c(-c3ccc(O)cc3)coc2c1
Activity: Dose-dependent effect
--
COMPOUND: CCOc1ccc2c(=O)c(-c3ccc(O)cc3)coc2c1
Activity: Dose-dependent effect
--
COMPOUND: CC1(C)C=Cc2cc3c(cc2O1)OCC(c1ccc(O)cc1)C3 (stereo not drawn)
Activity: Dose-dependent effect
--
COMPOUND: O=c1c(-c2ccc(O)cc2)coc2cc(O)ccc12
Activity: Dose-dependent effect

[ask] Field request: Activity | item: COc1ccc(NC(=O)c2ccc(OC)cc2OC)cc1
[reply] Dose-dependent effect

[ask] Field request: Activity | item: COc1ccc(C(=O)Nc2ccc(OCC(C)C)cc2)c(OC)c1
[reply] Dose-dependent effect

[ask] Field request: Activity | item: CC(C)Oc1ccc2c(=O)c(-c3ccc(O)cc3)coc2c1
[reply] Dose-dependent effect

###

EXPERIMENTAL DETAILS: Induction of osteogenic activity in human MSC assessed as cell differentiation at 1 uM after 14 days by alizarin red staining-based spectrometry relative to vehicle-treated control
Assay type: functional
MEASUREMENT LABEL: fold change (FC)
Output spec: single numeric token, no unit.

[ask] Field request: fold change (FC) | item: Cc1cc2c(ccc3c(=O)c(-c4ccc(O)cc4)coc32)o1
[reply] 1.6

[ask] Field request: fold change (FC) | item: CC(C)Oc1ccc2c(=O)c(-c3ccc(O)cc3)coc2c1
[reply] 1.6

[ask] Field request: fold change (FC) | item: CC1(C)C=Cc2cc3c(cc2O1)OCC(c1ccc(O)cc1)C3 (stereo unspecified)
[reply] 1.3

[ask] Field request: fold change (FC) | item: C=CCOc1ccc2c(=O)c(-c3ccc(O)cc3)coc2c1
[reply] 1.3

[ask] Field request: fold change (FC) | item: COc1ccc(C(=O)Nc2ccc(OCC(C)C)cc2)c(OC)c1
[reply] 1.6

[ask] Field request: fold change (FC) | item: COc1ccc(NC(=O)c2ccc(OC)cc2OC)cc1
[reply] 1.3

[ask] Field request: fold change (FC) | item: CCOc1ccc2c(=O)c(-c3ccc(O)cc3)coc2c1
[reply] 1.6

[ask] Field request: fold change (FC) | item: CCCCOc1ccc2c(=O)c(-c3ccc(O)cc3)coc2c1
[reply] 1.3

[ask] Field request: fold change (FC) | item: CC(C)COc1ccc2c(=O)c(-c3ccc(O)cc3)coc2c1
[reply] 1.3

[ask] Field request: fold change (FC) | item: CC1(C)CCc2c(ccc3c2OCC(c2ccc(O)cc2)C3=O)O1 (stereo unspecified)
[reply] 1.6

[ask] Field request: fold change (FC) | item: CCCOc1ccc2c(=O)c(-c3ccc(O)cc3)coc2c1
[reply] 1.3

[ask] Field request: fold change (FC) | item: CCCCCCOc1ccc2c(=O)c(-c3ccc(O)cc3)coc2c1
[reply] 1.3

[ask] Field request: fold change (FC) | item: O=c1c(-c2ccc(O)cc2)coc2cc(OC3CCCC3)ccc12
[reply] 1.3

[ask] Field request: fold change (FC) | item: COc1ccc(C(=O)Nc2ccc(O)cc2)c(OC)c1
[reply] 1.3

[ask] Field request: fold change (FC) | item: C#CCOc1ccc2c(=O)c(-c3ccc(O)cc3)coc2c1
[reply] 1.6
